Biological target: T1, Bicoid DBD-GST (Bcd) (UniProt P09081 83-170)
T1 sequence: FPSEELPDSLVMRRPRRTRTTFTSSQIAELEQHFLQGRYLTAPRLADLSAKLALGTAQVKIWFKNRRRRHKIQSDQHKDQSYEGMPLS
Experiment: competitive fluorescence anisotropy (HiP-FA); mean of replicates 12.922, 12.5195; HiP-FA: 33 mM phosphate pH 7.0, 90 mM NaCl, 0.01% Tween 20, 0.1 mM DTT, 0.5% agarose; conventional titration and EMSA: 20 mM Tris-acetate pH 7.0, 50 nM (sic) NaCl, 0.01% Tween-20, 0.1 mM DTT
Details: protein: recombinant; tags: N-terminal GST; blunt, G:G mismatch at position 6
measured.parameter: pKd
Notebook: values listed as pKd are -log10 of the concentration (mol/L).

Request: What value of pKd has been recorded for this entry: Bcd competitor 27 (C9A) (dsDNA) DNA 1: TCGACGGTAATCACTA DNA 2: TAGTGATTACGGTCGA
Result: 7.90

Just for reference, paper PMC5913336 is where these values come from.
